Consider the following binders and their measured T½ readings.
- SYSTEM TESTED: T1, hPRLR.mmh (soluble monomeric human PRLR) (human)
- T1 construct: soluble monomeric construct
- T1 chain: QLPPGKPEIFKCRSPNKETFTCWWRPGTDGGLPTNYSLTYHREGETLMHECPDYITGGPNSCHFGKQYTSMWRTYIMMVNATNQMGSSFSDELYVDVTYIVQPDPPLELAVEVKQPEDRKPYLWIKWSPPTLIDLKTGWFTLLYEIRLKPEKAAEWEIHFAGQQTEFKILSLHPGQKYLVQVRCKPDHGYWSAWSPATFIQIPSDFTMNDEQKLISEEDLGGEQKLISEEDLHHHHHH
- PROCEDURE SUMMARY: SPR, 37C, mAb capture
Respond with the bare value in min.

Recorded T½, per entry:
BINDER	T½ [min]
H1H6790P (antibody, human IgG1, V domains shown, human IgG1 Fc (H1H)) VH: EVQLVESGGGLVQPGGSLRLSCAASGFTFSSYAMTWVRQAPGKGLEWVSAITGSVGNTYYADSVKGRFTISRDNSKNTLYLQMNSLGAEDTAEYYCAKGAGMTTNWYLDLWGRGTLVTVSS VL: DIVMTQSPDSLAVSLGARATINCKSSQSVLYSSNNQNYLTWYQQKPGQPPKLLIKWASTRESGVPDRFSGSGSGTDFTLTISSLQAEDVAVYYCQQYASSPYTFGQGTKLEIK	4
H1H6797P (antibody, human IgG1, V domains shown, human IgG1 Fc (H1H)) VH: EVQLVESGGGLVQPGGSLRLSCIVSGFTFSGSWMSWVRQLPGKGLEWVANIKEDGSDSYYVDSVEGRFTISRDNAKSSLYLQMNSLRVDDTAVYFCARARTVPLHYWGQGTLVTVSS VL: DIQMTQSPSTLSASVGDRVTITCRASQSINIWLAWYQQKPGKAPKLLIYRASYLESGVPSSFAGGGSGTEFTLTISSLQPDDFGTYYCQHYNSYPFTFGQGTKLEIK	1

Ask | Give reported T½ value for H1H6781P (antibody, human IgG1, V domains shown, human IgG1 Fc (H1H)) VH: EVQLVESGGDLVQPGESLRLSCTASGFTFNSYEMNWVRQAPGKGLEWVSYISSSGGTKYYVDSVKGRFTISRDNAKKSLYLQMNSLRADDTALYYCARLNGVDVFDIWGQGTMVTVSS VL: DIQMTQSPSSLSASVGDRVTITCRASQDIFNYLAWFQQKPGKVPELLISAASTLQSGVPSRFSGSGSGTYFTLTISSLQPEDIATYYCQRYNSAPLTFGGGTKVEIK
Reply | 37

Ask | Give reported T½ value for H1H6975N (antibody, human IgG1, V domains shown, also called H2M6975N) VH: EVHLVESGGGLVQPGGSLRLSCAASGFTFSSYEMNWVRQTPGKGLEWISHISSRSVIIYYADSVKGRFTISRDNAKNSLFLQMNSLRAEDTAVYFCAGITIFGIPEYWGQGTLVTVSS VL: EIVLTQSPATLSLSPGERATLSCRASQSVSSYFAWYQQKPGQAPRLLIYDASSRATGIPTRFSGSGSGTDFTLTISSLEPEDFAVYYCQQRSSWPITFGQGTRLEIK
Reply | 42.3

Ask | Give reported T½ value for H1H6966N (antibody, human IgG1, V domains shown, also called H2M6966N) VH: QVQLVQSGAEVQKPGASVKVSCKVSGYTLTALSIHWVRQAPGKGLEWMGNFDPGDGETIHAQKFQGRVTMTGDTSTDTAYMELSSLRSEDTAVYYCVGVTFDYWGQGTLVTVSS VL: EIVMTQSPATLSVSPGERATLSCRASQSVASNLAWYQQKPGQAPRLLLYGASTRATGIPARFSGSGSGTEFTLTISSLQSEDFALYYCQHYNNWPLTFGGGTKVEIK
Reply | 12

Cited source: patent US20150056222A1
